Taken from ChEMBL document CHEMBL1132390.

- Tested on: Staphylococcus sp.
- Experiment description: In vitro antibacterial activity of compound against Staphylococci bacteria.
- Assay type: functional
Observable: MIC (µg/mL)

[[record]]
compound = "COC[C@H]1O[C@@H](O[C@@H]2OC[C@@H]3O[C@@]4(OC[C@@H](OC(=O)c5c(C)cc(O)cc5O)[C@@H]5OCO[C@H]54)O[C@H]3[C@H]2O)[C@@H](OC)[C@@H](O)[C@@H]1O[C@@H]1O[C@H](C)[C@H](OC)[C@H](O[C@@H]2O[C@H](C)[C@H]3O[C@]4(C[C@@H](O)[C@H](O[C@H]5C[C@@H](O[C@H]6C[C@](C)(NC(C)=O)[C@@H](OC)[C@H](C)O6)[C@H](OC(=O)c6c(C)c(Cl)c(O)c(Cl)c6OC)[C@@H](C)O5)[C@@H](C)O4)O[C@]3(C)[C@@H]2O)[C@@]1(C)O"
observable = "MIC"
assay_result = 1

[[record]]
compound = "C=CCOc1c(Cl)c(C)c(C(=O)O[C@@H]2[C@@H](C)O[C@@H](O[C@H]3[C@H](O)C[C@]4(O[C@@H]5[C@@H](C)O[C@@H](O[C@H]6[C@@H](OC)[C@@H](C)O[C@@H](O[C@H]7[C@H](O)[C@H](OC)[C@H](O[C@@H]8OC[C@@H]9O[C@@]%10(OC[C@@H](OC(=O)c%11c(C)cc(O)cc%11O)[C@@H]%11OCO[C@H]%11%10)O[C@H]9[C@H]8O)O[C@@H]7COC)[C@]6(C)O)[C@@H](O)[C@@]5(C)O4)O[C@@H]3C)C[C@H]2O[C@H]2C[C@](C)([N+](=O)[O-])[C@@H](OC)[C@H](C)O2)c(OC)c1Cl"
observable = "MIC"
assay_result = 4

[[record]]
compound = "COC[C@H]1O[C@@H](O[C@@H]2OC[C@@H]3O[C@@]4(OC[C@@H](OC(=O)c5c(C)cc(O)cc5O)[C@@H]5OCO[C@H]54)O[C@H]3[C@H]2OC)[C@@H](OC)[C@@H](OC)C1O[C@@H]1O[C@H](C)[C@H](OC)C(O[C@@H]2O[C@H](C)[C@H]3O[C@]4(C[C@@H](OC)[C@H](O[C@H]5C[C@@H](O[C@H]6C[C@](C)([N+](=O)[O-])[C@@H](OC)[C@H](C)O6)[C@H](OC(=O)c6c(C)c(Cl)c(O)c(Cl)c6OC)[C@@H](C)O5)[C@@H](C)O4)O[C@]3(C)[C@@H]2OC)[C@@]1(C)OC (stereo not given in full)"
observable = "MIC"
assay_result = 16

[[record]]
compound = "C=CCOc1cc(C)c(C(=O)O[C@@H]2CO[C@]3(O[C@H]4[C@@H](OCCO)[C@H](O[C@@H]5O[C@H](COC)[C@@H](O[C@@H]6O[C@H](C)[C@H](OC)[C@H](O[C@@H]7O[C@H](C)[C@H]8O[C@]9(C[C@@H](O)[C@H](O[C@H]%10C[C@@H](O[C@H]%11C[C@](C)([N+](=O)[O-])[C@@H](OC)[C@H](C)O%11)[C@H](OC(=O)c%11c(C)c(Cl)c(OCC=C)c(Cl)c%11OC)[C@@H](C)O%10)[C@@H](C)O9)O[C@]8(C)[C@@H]7O)[C@@]6(C)O)[C@H](O)[C@@H]5OC)OC[C@@H]4O3)[C@@H]3OCO[C@H]32)c(OCC=C)c1"
observable = "MIC"
assay_result = 16

[[record]]
compound = "COC[C@H]1O[C@@H](O[C@@H]2OC[C@@H]3O[C@@]4(OC[C@@H](OC(=O)c5c(C)cc(O)cc5O)[C@@H]5OCO[C@H]54)O[C@H]3[C@H]2O)[C@@H](OC)[C@@H](O)[C@@H]1O[C@@H]1O[C@H](C)[C@H](OC)[C@H](O[C@@H]2O[C@H](C)[C@H]3O[C@]4(C[C@@H](O)[C@H](O[C@H]5C[C@@H](O[C@H]6C[C@](C)([N+](=O)[O-])[C@@H](OC)[C@H](C)O6)[C@H](OC(=O)c6c(C)c(Cl)c(O)c(Cl)c6OC)[C@@H](C)O5)[C@@H](C)O4)O[C@]3(C)[C@@H]2O)[C@H]1O"
observable = "MIC"
assay_result = 2


###

- Tested on: Staphylococcus sp.
- Experiment description: In vitro antibacterial activity of compound against Staphylococci bacteria.
- Format: functional
Observable: MIC (µg/mL)

[[record]]
smiles_record = "COC[C@H]1O[C@@H](O[C@@H]2OC[C@@H]3O[C@@]4(OC[C@@H](OC(=O)c5c(C)cc(O)cc5O)[C@@H]5OCO[C@H]54)O[C@H]3[C@H]2OCCN=[N+]=[N-])[C@@H](OC)[C@@H](O)[C@@H]1O[C@@H]1O[C@H](C)[C@H](OC)[C@H](O[C@@H]2O[C@H](C)[C@H]3O[C@]4(C[C@@H](O)[C@H](O[C@H]5C[C@@H](O[C@H]6C[C@](C)([N+](=O)[O-])[C@@H](OC)[C@H](C)O6)[C@H](OC(=O)c6c(C)c(Cl)c(O)c(Cl)c6OC)[C@@H](C)O5)[C@@H](C)O4)O[C@]3(C)[C@@H]2O)[C@@]1(C)O"
assay_result = 2


###

- System: Staphylococcus sp.
- Experiment description: In vitro antibacterial activity of compound against Staphylococci bacteria.
- Format: functional
Observable: MIC (µg/mL)

[[record]]
smiles_record = "COC[C@H]1O[C@@H](O[C@@H]2OC[C@@H]3O[C@@]4(OC[C@@H](OC(=O)c5c(C)cc(O)cc5O)[C@@H]5OCO[C@H]54)O[C@H]3[C@H]2OCCNC(C)=O)[C@@H](OC)[C@@H](O)[C@@H]1O[C@@H]1O[C@H](C)[C@H](OC)[C@H](O[C@@H]2O[C@H](C)[C@H]3O[C@]4(C[C@@H](O)[C@H](O[C@H]5C[C@@H](O[C@H]6C[C@](C)([N+](=O)[O-])[C@@H](OC)[C@H](C)O6)[C@H](OC(=O)c6c(C)c(Cl)c(O)c(Cl)c6OC)[C@@H](C)O5)[C@@H](C)O4)O[C@]3(C)[C@@H]2O)[C@@]1(C)O"
unit_spec = "µg/mL"
assay_result = 2

[[record]]
smiles_record = "COC[C@H]1O[C@@H](O[C@@H]2OC[C@@H]3O[C@@]4(OC[C@@H](OC(=O)c5c(C)cc(O)cc5O)[C@@H]5OCO[C@H]54)O[C@H]3[C@H]2O)[C@@H](OC)[C@@H](O)[C@@H]1O[C@@H]1O[C@H](C)[C@H](OC)[C@H](O[C@@H]2O[C@H](C)[C@H]3O[C@]4(C[C@@H](O)[C@H](O[C@H]5C[C@@H](O[C@H]6C[C@](C)(NC(=O)[C@H](C)N)[C@@H](OC)[C@H](C)O6)[C@H](OC(=O)c6c(C)c(Cl)c(O)c(Cl)c6OC)[C@@H](C)O5)[C@@H](C)O4)O[C@]3(C)[C@@H]2O)[C@@]1(C)O"
unit_spec = "µg/mL"
assay_result = 4

[[record]]
smiles_record = "COC[C@H]1O[C@@H](O[C@@H]2OC[C@@H]3O[C@@]4(OC[C@@H](OC(=O)c5c(C)cc(O)cc5O)[C@@H]5OCO[C@H]54)O[C@H]3[C@H]2O)[C@@H](OC)[C@@H](O)[C@@H]1O[C@@H]1O[C@H](C)[C@H](OC)[C@H](O[C@@H]2O[C@H](C)[C@H]3O[C@]4(C[C@@H](O)[C@H](O[C@H]5C[C@@H](O[C@H]6C[C@](C)(N)[C@@H](OC)[C@H](C)O6)[C@H](OC(=O)c6c(C)c(Cl)c(O)c(Cl)c6OC)[C@@H](C)O5)[C@@H](C)O4)O[C@]3(C)[C@@H]2O)[C@@]1(C)O"
unit_spec = "µg/mL"
assay_result = 2

[[record]]
smiles_record = "COC[C@H]1O[C@@H](O[C@@H]2OC[C@@H]3O[C@@]4(OC[C@@H](OC(=O)c5c(C)cc(O)cc5O)[C@@H]5OCO[C@H]54)O[C@H]3[C@H]2OCCO)[C@@H](OC)[C@@H](O)[C@@H]1O[C@@H]1O[C@H](C)[C@H](OC)[C@H](O[C@@H]2O[C@H](C)[C@H]3O[C@]4(C[C@@H](O)[C@H](O[C@H]5C[C@@H](O[C@H]6C[C@](C)([N+](=O)[O-])[C@@H](OC)[C@H](C)O6)[C@H](OC(=O)c6c(C)c(Cl)c(O)c(Cl)c6OC)[C@@H](C)O5)[C@@H](C)O4)O[C@]3(C)[C@@H]2O)[C@@]1(C)O"
unit_spec = "µg/mL"
assay_result = 1

